condition summary: 383.15 K; 20000 kPa; Liquid
result type: mass density (kg/m3)
// note: answer is a bare numeric in kg/m3

Q) mass density lookup needed for CCCCCOC(C)=O [pentyl ethanoate] , thanks.
A) 811.7

Q) Need mass density of CCOC(C)=O [ethyl acetate] , thanks.
A) 818.2

Q) Name the reported mass density value associated with the compound CCCCOC(C)=O [butyl ethanoate]
A) 812.8

Q) Fill in: mass density of CCCOC(C)=O [propyl ethanoate] is ___
A) 813.2

---

condition summary: 363.15 K; 10000 kPa; Liquid
Numbers after ± are expanded uncertainties.
result type: mass density
Report the figure along with its unit, number first.

Q) I am curious: what mass density value has been reported for CCCCOC(C)=O [butyl ethanoate] ?
A) 819.2 ± 4.4 kg/m3

Q) Fill in the blank: the reported mass density of CCCCCOC(C)=O [pentyl ethanoate] is ____.
A) 818.1 ± 4.5 kg/m3

Q) What value of measured mass density is listed for CCCOC(C)=O [propyl ethanoate] ?
A) 819.9 ± 4.5 kg/m3

Q) Give the measured mass density of CCOC(C)=O [ethyl acetate] .
A) 826.3 ± 4.3 kg/m3
